All figures here come from ChEMBL document CHEMBL5584296.

experimental details: Half-life in male ICR mouse at 1 mg/kg, iv measured after 24 hrs by LC-MS/MS analysis
Assay type: ADME, organism-based
conditions used: in vivo

smiles repr: COc1cccc(-c2cc(N3CCCc4ccccc4C3)nc(N)n2)c1
half-life, min: 31.2

====

experimental details: Ratio of drug concentration in male ICR mouse brain to plasma at 20 mg/kg, po measured after 0.5 hrs by LC-MS/MS analysis
Assay type: ADME, organism-based
conditions used: read-out: BPR

smiles repr: COc1cccc(-c2cc(N3CCCc4ccccc4C3)nc(N)n2)c1
Kp at 0.5 h: 3.2

====

study target: Sodium channel protein type 2 subunit alpha (Homo sapiens)
experimental details: Inhibition of human Nav1.2 expressed in HEK293 cells assessed as test to control ratio at 1 uM measured after 5 mins by whole cell voltage clamp electrophysiological analysis
Assay type: cell-based
Sequence (Q99250 whole entry, looked up): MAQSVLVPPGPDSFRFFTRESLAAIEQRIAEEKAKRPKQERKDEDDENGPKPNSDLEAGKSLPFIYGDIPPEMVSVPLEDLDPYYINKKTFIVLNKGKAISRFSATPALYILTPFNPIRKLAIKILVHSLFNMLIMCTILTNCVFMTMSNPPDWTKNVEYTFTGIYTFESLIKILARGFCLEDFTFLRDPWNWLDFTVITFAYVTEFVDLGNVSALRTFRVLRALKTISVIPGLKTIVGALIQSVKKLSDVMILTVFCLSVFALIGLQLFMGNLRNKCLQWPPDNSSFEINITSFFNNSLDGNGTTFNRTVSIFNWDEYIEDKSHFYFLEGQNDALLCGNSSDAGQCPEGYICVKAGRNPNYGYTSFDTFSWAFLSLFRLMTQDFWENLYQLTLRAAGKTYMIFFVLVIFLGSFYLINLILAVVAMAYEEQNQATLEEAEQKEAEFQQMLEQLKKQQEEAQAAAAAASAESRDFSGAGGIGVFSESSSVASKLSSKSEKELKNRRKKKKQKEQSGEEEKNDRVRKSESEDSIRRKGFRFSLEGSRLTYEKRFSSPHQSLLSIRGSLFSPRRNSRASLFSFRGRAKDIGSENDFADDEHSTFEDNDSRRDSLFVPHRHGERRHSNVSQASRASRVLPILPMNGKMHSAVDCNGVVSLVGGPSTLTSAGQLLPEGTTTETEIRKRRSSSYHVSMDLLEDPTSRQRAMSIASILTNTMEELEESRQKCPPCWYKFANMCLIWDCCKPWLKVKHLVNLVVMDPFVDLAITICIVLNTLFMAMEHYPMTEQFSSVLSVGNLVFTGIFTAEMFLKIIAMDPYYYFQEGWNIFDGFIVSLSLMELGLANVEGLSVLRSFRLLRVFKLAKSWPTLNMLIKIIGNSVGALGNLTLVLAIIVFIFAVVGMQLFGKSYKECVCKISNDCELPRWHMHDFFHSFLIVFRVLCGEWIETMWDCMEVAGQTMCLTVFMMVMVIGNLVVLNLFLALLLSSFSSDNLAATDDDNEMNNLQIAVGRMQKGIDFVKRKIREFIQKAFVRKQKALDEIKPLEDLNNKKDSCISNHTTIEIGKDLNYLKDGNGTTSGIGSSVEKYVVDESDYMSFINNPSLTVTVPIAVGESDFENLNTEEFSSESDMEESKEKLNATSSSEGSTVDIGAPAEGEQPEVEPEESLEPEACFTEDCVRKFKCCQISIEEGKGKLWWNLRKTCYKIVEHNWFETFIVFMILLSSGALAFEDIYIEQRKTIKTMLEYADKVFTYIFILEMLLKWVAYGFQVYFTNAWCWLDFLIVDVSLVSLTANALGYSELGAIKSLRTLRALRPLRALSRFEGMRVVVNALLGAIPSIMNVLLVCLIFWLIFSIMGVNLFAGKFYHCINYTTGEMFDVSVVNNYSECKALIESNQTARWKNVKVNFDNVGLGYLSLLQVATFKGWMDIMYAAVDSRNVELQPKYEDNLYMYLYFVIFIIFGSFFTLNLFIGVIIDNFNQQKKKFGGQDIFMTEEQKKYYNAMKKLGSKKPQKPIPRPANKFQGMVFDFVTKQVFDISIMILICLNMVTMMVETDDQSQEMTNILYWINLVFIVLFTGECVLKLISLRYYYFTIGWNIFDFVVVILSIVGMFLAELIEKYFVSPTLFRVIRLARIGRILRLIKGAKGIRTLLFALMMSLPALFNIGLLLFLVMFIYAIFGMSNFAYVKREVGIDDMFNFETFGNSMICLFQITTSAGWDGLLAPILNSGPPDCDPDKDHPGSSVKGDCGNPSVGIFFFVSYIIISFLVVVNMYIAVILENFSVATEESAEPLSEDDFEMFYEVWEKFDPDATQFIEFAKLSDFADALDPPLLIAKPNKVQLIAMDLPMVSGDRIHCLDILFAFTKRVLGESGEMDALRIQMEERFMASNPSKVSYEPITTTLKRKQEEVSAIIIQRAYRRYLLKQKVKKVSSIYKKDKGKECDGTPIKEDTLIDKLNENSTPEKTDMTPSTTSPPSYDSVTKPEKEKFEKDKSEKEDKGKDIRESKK
Response field label: string, one of TRUE (T/C strictly below 0.5) or FALSE.

smiles repr: COc1cccc(-c2cc(N3CCCc4ccccc4C3)nc(N)n2)c1
assigned class: TRUE
//
smiles repr: Nc1nc(-c2cccc(OC(F)(F)F)c2)cc(N2CCCc3ccccc3C2)n1
assigned class: FALSE
//
smiles repr: COc1cccc(-c2cc(N3CCCc4ccccc4C3)nc(NS(=O)(=O)c3ccc(F)cc3)n2)c1
assigned class: FALSE
//
smiles repr: COc1cccc(-c2cc(N3CCCc4ccc(C)cc4C3)nc(N)n2)c1
assigned class: TRUE
//
smiles repr: COc1cccc(-c2cc(N3CCCc4c(cc(OC)cc4OC)C3)nc(N)n2)c1
assigned class: FALSE
//
smiles repr: COc1cccc(-c2cc(N3CC4CC(C3)c3ccccc34)nc(NS(=O)(=O)c3ccc(C)cc3)n2)c1
assigned class: FALSE
//
smiles repr: COc1cccc(-c2cc(N3CCc4nc(Cl)ccc4C3)nc(N)n2)c1
assigned class: FALSE
//
smiles repr: COc1cccc(-c2cc(N3CC4CC(C3)c3ccccc34)nc(NS(=O)(=O)c3ccc(F)cc3)n2)c1
assigned class: FALSE
//
smiles repr: COc1cccc(-c2cc(N3CCCc4ccc(C)cc4C3)nc(OC)n2)c1
assigned class: TRUE
//
smiles repr: COc1cccc(-c2cc(N3CCCc4ccc(C)cc4C3)ncn2)c1
assigned class: TRUE

====

study target: Sodium channel protein type 2 subunit alpha (Homo sapiens, UniProt Q99250)
experimental details: Inhibition of human Nav1.2 expressed in HEK293 cells at -120 mv holding potential measured after 5 mins by whole cell voltage clamp electrophysiological analysis
Assay type: cell-based
Sequence (Q99250 whole entry): as the sequence (Q99250 whole entry, looked up) above
pIC50: −log10 of the molar value.

smiles repr: COc1cccc(-c2cc(N3CCCc4ccc(C)cc4C3)nc(N)n2)c1
pIC50: 6.80
--
smiles repr: COc1cccc(-c2cc(N3CC4CC(C3)c3ccccc34)nc(N)n2)c1
pIC50: 4.67
--
smiles repr: COc1cccc(-c2cc(N3CCCc4ccccc4C3)nc(N)n2)c1
pIC50: 4.96

====

experimental details: MRT (0 to infinity) in male ICR mouse at 10 mg/kg, ip measured after 24 hrs by LC-MS/MS analysis
Type: ADME, organism-based
conditions used: in vivo

smiles repr: COc1cccc(-c2cc(N3CCCc4ccccc4C3)nc(N)n2)c1
MRT inf (min): 51

====

study target: Sodium channel protein type 2 subunit alpha (Homo sapiens)
experimental details: Inhibition of human Nav1.2 expressed in HEK293 cells assessed as test to control ratio at 10 uM measured after 5 mins by whole cell voltage clamp electrophysiological analysis
Format: cell-based
Rule: T/C under 0.2 gives not satisfied, otherwise satisfied.

molecule: COc1cccc(-c2cc(NCCc3ccc4c(c3)OCO4)nc(N)n2)c1
study target: Sodium channel protein type 2 subunit alpha (Homo sapiens)
assigned class: not satisfied
//
molecule: COc1cccc(-c2cc(N3CC4CC(C3)c3ccccc34)nc(NS(=O)(=O)c3ccc(C)cc3C)n2)c1
study target: Sodium channel protein type 2 subunit alpha (Homo sapiens)
assigned class: satisfied
//
molecule: Nc1nc(-c2cccn2C2CCCCO2)cc(N2CCCc3ccccc3C2)n1 (stereo unspecified)
study target: Sodium channel protein type 2 subunit alpha (Homo sapiens)
assigned class: not satisfied
//
molecule: COc1cccc(-c2cc(N3CCCc4ccc(C)cc4C3)nc(-c3ccccc3)n2)c1
study target: Sodium channel protein type 2 subunit alpha (Homo sapiens)
assigned class: satisfied
//
molecule: COc1cccc(-c2cc(N3CC4CC(C3)c3ccccc34)nc(NS(=O)(=O)c3ccc(C)cc3)n2)c1
study target: Sodium channel protein type 2 subunit alpha (Homo sapiens)
assigned class: satisfied
//
molecule: COc1cccc(-c2cc(N3CCCc4ccc(C)cc4C3)nc(S(C)(=O)=O)n2)c1
study target: Sodium channel protein type 2 subunit alpha (Homo sapiens)
assigned class: satisfied
//
molecule: COc1cccc(-c2cc(N3CCCc4ccc(C)cc4C3)nc(N)n2)c1
study target: Sodium channel protein type 2 subunit alpha (Homo sapiens)
assigned class: not satisfied
//
molecule: COc1cccc(-c2cc(N3CC4CC(C3)c3ccccc34)nc(NS(=O)(=O)c3ccc(F)cc3)n2)c1
study target: Sodium channel protein type 2 subunit alpha (Homo sapiens)
assigned class: satisfied
//
molecule: COc1cccc(-c2cc(N3CCCc4ccc(F)cc4C3)nc(N)n2)c1
study target: Sodium channel protein type 2 subunit alpha (Homo sapiens)
assigned class: not satisfied
//
molecule: Cc1cccc(-c2cc(N3CCCc4ccccc4C3)nc(N)n2)c1
study target: Sodium channel protein type 2 subunit alpha (Homo sapiens)
assigned class: not satisfied
//
molecule: Nc1nc(-c2ccc3c(c2)OCCC3)cc(N2CCCc3ccccc3C2)n1
study target: Sodium channel protein type 2 subunit alpha (Homo sapiens)
assigned class: not satisfied

====

experimental details: Drug concentration in male ICR mouse brain at 10 mg/kg, ip measured after 0.5 hrs by LC-MS/MS analysis
Type: ADME, organism-based
conditions used: read-out: Ct
quantity measured: concentration at 0.5 h (ng/g)

smiles repr: COc1cccc(-c2cc(N3CCCc4ccccc4C3)nc(N)n2)c1
endpoint value: 800

====

experimental details: Tmax in male ICR mouse at 1 mg/kg, iv measured after 24 hrs by LC-MS/MS analysis
Type: ADME, organism-based
conditions used: in vivo
quantity measured: Tmax (min)

smiles repr: COc1cccc(-c2cc(N3CCCc4ccccc4C3)nc(N)n2)c1
endpoint value: 3

====

experimental details: Oral bioavailability in male ICR mouse at 20 mg/kg measured after 24 hrs by LC-MS/MS analysis
Type: ADME, organism-based
conditions used: in vivo

smiles repr: COc1cccc(-c2cc(N3CCCc4ccccc4C3)nc(N)n2)c1
bioavailability (%): 3

====

study target: Sodium channel protein type 2 subunit alpha (Homo sapiens)
experimental details: Inhibition of Nav1.2 (unknown origin)
pIC50: −log10 of the molar value.
Catalogue of pIC50 values

compound: Cc1cccc(C)c1OCCCNCc1cc(C(C)(C)C)c(O)c(C(C)(C)C)c1
pIC50: 6.74
--
compound: Nc1cnc(-c2cc(Cl)cc(Cl)c2Cl)c(N)n1 [ELPETRIGINE]
pIC50: 5.22

====

experimental details: Drug concentration in male ICR mouse brain at 20 mg/kg, po measured after 0.5 hrs by LC-MS/MS analysis
Type: ADME, organism-based
conditions used: read-out: Ct
quantity measured: concentration at 0.5 h (ng/g)

smiles repr: COc1cccc(-c2cc(N3CCCc4ccccc4C3)nc(N)n2)c1
quantity measured: concentration at 0.5 h
endpoint value: 59.3

====

study target: Sodium channel protein type 2 subunit alpha (Homo sapiens, UniProt Q99250)
experimental details: Inhibition of human Nav1.2 expressed in HEK293 cells assessed as test to control ratio at 1 uM measured after 5 mins by whole cell voltage clamp electrophysiological analysis
Type: cell-based

compound: COc1cccc(-c2cc(N3CCC(C)c4ccccc4C3)nc(N)n2)c1 (stereo unspecified)
T/C: 0.12
--
compound: COc1cccc(-c2cc(N3CCCc4cc(F)ccc4C3)nc(N)n2)c1
T/C: 0.03
--
compound: Nc1nc(-c2cccc3ccccc23)cc(N2CCCc3ccccc3C2)n1
T/C: 0.85
--
compound: COc1cccc(-c2cc(N3CCC4(CCOCC4)C3)nc(N)n2)c1
T/C: 0.94
--
compound: COc1cccc(-c2cc(N3CC4CC(C3)c3ccccc34)nc(N)n2)c1
T/C: 0.4
--
compound: COc1cccc(-c2cc(N3CCc4ccccc4C3)nc(N)n2)c1
T/C: 0.35
--
compound: COc1cccc(-c2cc(NCc3ccc(OC)c(OC)c3)nc(N)n2)c1
T/C: 0.4
--
compound: Cc1cccc(-c2cc(N3CCCc4ccccc4C3)nc(N)n2)c1
T/C: 0.24
--
compound: COc1cccc(-c2cc(N3CCCc4ccc(OCc5ccccc5)cc4C3)nc(N)n2)c1
T/C: 0.11
--
compound: COc1cccc(-c2nc(N)nc(N3CCCc4ccc(C)cc4C3)c2F)c1
T/C: 0.19
--
compound: Nc1nc(-c2ccc(OC3CCCCO3)cc2)cc(N2CCCc3ccccc3C2)n1 (stereo unspecified)
T/C: 0.76

====

experimental details: Tmax in male ICR mouse at 10 mg/kg, ip measured after 24 hrs by LC-MS/MS analysis
Format: ADME, organism-based
conditions used: in vivo

smiles repr: COc1cccc(-c2cc(N3CCCc4ccccc4C3)nc(N)n2)c1
Tmax (min): 7.2
